Values were extracted from paper PMC7611705.

property: pIC50
Scale note: pIC50 = -log10(concentration in M).

Notebook: pull reported pIC50 for RSK4 (Homo sapiens, UniProt Q9UK32), entry N[C@@H]1[C@H]2CN(c3nc4c(cc3F)c(=O)c(C(=O)O)cn4-c3ccc(F)cc3F)C[C@@H]12
5.00

Notebook: pull reported pIC50 for RSK4 (Homo sapiens, UniProt Q9UK32), entry COc1c(N2C[C@@H]3CCCN[C@@H]3C2)c(F)cc2c(=O)c(C(=O)O)cn(C3CC3)c12
5.21

* * *

biological target: RSK4 (Homo sapiens, UniProt Q9UK32); test: biochemical; details: floxacin family members
Sequence (Q9UK32 whole entry): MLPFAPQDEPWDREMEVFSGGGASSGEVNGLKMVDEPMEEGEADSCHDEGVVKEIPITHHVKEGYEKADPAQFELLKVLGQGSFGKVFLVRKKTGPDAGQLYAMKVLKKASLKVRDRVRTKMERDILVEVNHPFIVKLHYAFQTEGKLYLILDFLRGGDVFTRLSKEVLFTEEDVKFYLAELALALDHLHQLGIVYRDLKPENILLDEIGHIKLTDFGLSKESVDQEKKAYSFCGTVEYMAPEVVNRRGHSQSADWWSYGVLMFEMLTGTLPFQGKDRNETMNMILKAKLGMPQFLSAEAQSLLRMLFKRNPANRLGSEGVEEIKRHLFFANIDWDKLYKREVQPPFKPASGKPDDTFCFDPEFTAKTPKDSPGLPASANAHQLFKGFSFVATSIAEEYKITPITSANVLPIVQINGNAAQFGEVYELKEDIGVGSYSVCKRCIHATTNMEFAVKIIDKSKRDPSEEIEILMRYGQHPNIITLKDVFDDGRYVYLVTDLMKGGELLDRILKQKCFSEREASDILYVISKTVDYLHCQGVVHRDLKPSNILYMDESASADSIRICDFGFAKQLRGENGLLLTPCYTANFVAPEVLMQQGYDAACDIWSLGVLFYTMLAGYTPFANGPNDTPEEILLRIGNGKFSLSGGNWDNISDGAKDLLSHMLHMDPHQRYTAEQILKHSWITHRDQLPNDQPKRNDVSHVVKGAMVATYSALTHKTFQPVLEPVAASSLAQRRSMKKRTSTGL
Where a name gives a salt, the structure may show the parent alone.
property: activity in RSK4 HTRF-activation assay (inhibitor or inactive)

Below: 4 compounds and their reported activity in RSK4 HTRF-activation assay (inhibitor or inactive).
compound	reported.measurement
CN1CCN(c2c(F)cc3c(=O)c(C(=O)O)cn4c3c2OCN4C)CC1	additional inhibitors
NC1CCN(c2nc3c(cc2F)c(=O)c(C(=O)O)cn3-c2ccc(F)cc2F)C1 (stereo not shown) [tosufloxacin, tosufloxacin tosylate]	additional inhibitors
N[C@@H]1[C@H]2CN(c3nc4c(cc3F)c(=O)c(C(=O)O)cn4-c3ccc(F)cc3F)C[C@@H]12	additional inhibitors
CN1CCN(c2c(F)cc3c(=O)c(C(=O)O)cn4c3c2SCC4)CC1	additional inhibitors

// activity in RSK4 HTRF-activation assay (inhibitor or inactive) lookup, key: CCn1cc(C(=O)O)c(=O)c2cnc(N3CCCC3)nc21
inactive analogues

// activity in RSK4 HTRF-activation assay (inhibitor or inactive) lookup, key: CN1C[C@@H]2C[C@H]1CN2c1cc2c(cc1F)c(=O)c(C(=O)O)cn2C1CC1
inactive analogues
